This section presents molecules with their documented Emax values.
ASSAYED TARGET: FBW7^ARG (RLFBW7) alone (Homo sapiens, UniProt Q969H0, R505L)
Construct: GST (TEV site and flexible linker) (N, cleaved yes); made in house; host or cells: SF9 insect cells (baculovirus)
Sequence (Q969H0 64-707 R505L): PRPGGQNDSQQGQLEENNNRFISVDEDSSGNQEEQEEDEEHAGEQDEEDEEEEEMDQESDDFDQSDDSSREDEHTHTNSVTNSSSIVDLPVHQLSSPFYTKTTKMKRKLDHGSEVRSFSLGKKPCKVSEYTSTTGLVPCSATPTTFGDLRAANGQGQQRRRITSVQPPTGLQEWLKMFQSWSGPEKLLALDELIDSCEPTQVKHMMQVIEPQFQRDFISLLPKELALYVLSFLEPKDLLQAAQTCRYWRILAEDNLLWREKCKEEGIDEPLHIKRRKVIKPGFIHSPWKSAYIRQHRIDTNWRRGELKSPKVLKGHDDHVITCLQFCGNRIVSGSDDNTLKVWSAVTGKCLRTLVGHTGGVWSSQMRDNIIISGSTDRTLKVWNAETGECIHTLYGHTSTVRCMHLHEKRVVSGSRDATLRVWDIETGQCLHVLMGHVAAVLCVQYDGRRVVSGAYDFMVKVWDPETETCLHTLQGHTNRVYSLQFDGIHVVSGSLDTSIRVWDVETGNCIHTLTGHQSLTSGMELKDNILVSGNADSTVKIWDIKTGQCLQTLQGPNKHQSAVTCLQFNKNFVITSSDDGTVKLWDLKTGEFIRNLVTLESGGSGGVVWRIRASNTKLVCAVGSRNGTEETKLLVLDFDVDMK
Sequence (P63208 2-163 partner): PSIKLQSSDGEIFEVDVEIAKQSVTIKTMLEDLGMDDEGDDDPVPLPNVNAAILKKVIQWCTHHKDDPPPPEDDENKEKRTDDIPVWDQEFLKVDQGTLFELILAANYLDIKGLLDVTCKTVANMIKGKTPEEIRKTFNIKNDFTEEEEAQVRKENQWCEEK
TEST NAME: Counterscreen 1 ALPHAscreen with FBW7^ARG alone (CSRUN1/DCSRUN1)
Assay type: binding
CONDITION PARAMETERS: dose-response counterscreen, read-out: RLFBW7 ACT DCSRUN1 Averaged Max % Response
Quick note: give the figure in %, leave out the unit.

# MOLECULE, READOUT UNIT, ASSAY VALUE
records = [
    ("Cc1ccc(-c2cccc3cnc(Nc4ccc(-n5cnc(-c6ccccn6)n5)cc4)nc23)cn1.O=C(O)C(F)(F)F [SR-00000008492-1]", "%", 29.7),
]

Please examine the following record next.
Prompt line: Any idea what Emax was measured for C/C(=N\Nc1cccc(C(F)(F)F)c1)C1CC1 [SR-01000041073-1] ?
Response line: 101

These measurements were taken from patent US20210047278A1.
